# studySystem: Human, recombinant dihydrofolate reductase (Homo sapiens, UniProt P00374)
# Construct: purchased Sigma D6566
# Sequence (P00374 1-187): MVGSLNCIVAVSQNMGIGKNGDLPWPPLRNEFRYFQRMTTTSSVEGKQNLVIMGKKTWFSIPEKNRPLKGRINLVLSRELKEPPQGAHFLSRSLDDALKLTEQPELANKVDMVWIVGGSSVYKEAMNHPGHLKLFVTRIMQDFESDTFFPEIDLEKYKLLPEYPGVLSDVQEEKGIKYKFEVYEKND
# experimentSummary: Human DHFR assay
# Assay type: biochemical
# measurementParameters: Table 3, read-out: hDHFR IC50
Assignment: determine reported IC50 for the given compounds.

1) Cc1cccc(C)c1CN1CCC(COc2cccc3nc(N)nc(N)c23)CC1 [Example-158]    > 100 µM

State the recorded IC50 for every item in the following list.
1. Nc1nc(N)c2c(OCC3CCN(Cc4c(F)cccc4Cl)CC3)cccc2n1 [Example-161]
2. Nc1nc(N)c2c(OCC3CCN(c4ccccc4F)CC3)cccc2n1 [Examplc-155]
3. Nc1nc(N)c2c(OCC3CCN(CC(F)F)CC3)cccc2n1 [Example-159]
4. Nc1nc(N)c2c(OCC3CCN(Cc4c(F)cccc4C(F)(F)F)CC3)cccc2n1 [Example-160]
5. Nc1nc(N)c2c(OCC3CCN(CC(F)(F)F)CC3)cccc2n1 [Example-165]

Completion:
> 100 µM
< 20 µM
> 100 µM
> 100 µM
> 100 µM
